- targetSystem: UniProt:P09211
measurementType: pKi
Field pKi (float): negative decimal logarithm of the concentration in molar.

// sample NC(CCC(=O)NC(CSC(CO)c1ccccc1)C(=O)NCC(=O)O)C(=O)O (stereo unspecified) , its pKi was 5.95

====

Glutathione S-transferase P (Homo sapiens, UniProt P09211): recorded IC50 for assorted molecules
Sequence (P09211 whole entry): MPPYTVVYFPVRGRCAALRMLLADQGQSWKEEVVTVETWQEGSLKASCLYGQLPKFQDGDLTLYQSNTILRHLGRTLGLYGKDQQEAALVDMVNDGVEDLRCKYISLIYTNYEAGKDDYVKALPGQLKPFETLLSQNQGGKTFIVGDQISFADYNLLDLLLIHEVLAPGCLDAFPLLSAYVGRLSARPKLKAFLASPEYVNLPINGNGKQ
Express the result in µM but write the number alone.

Example molecules with recorded IC50:
Glutathione S-transferase P (Homo sapiens, UniProt P09211) assay, molecule NC(CCC(=O)NC(CSCC(O)c1ccccc1)C(=O)NCC(=O)O)C(=O)O (stereo not drawn) , recorded IC50 = 4.7

Entry NC(CCC(=O)NC(CSC(C(=O)O)c1ccccc1)C(=O)NCC(=O)O)C(=O)O (stereo not drawn) , tested on Glutathione S-transferase P (Homo sapiens, UniProt P09211), has a reported IC50 of 5.5

Switching to the query record.
Glutathione S-transferase P (Homo sapiens, UniProt P09211) data for NC(CCC(=O)NC(CSCCO)C(=O)NCC(=O)O)C(=O)O (stereo not drawn) ; its IC50: 280

Data provenance is ChEMBL document CHEMBL1140414.
